# assayMethodText: protein stability index of a GFP-peptide fusion (yeast GPS) (PSI 1-4); higher = more stable; sorted into four equal gates, so the index is relative within each strain
# experimentalParameters: ubr1∆
Hi there, I'd appreciate the recorded protein stability index for every entry that follows.
Give bare numbers.

> print(dat)
             polymersequence              readoutname  number
1   NFAHSDSLSVPKVSAGD [SIR4]  protein stability index    3.27
2   EVNREEAIGFIRGSNKF [SMC3]  protein stability index    2.57
3  KVVGPRGTLTKNLKHID [RPL9A]  protein stability index    2.35
4   KRAEKKAKERLQALKAN [SNF2]  protein stability index     1.3
5  THSYNFMRQNLEWNMAN [RPC82]  protein stability index    2.24
6   FQVHERLAPLIKEENDM [ARP7]  protein stability index    3.22
7   AETQGSKVVIDSIIDNI [IRR1]  protein stability index    2.99

Lookup: I am curious: what protein stability index value has been reported for NKHLTTLVEIFLERKCV [SSN3] ?
Found: 3.2

====

# assayMethodText: protein stability index of a GFP-peptide fusion (yeast GPS) (PSI 1-4); higher = more stable; sorted into four equal gates, so the index is relative within each strain
# experimentalParameters: doa10∆
For each record, write down the corresponding protein stability index.
Answers are plain numbers.

Look over these answered cases.
> print(dat)
                      polymersequence  number
1  YWTQYLGLFIHKISFSG [YJL039C/NUP192]    1.99
2            MAKKEGTPKTDSFIFDG [MED4]    3.43
3            LEDYVPHQSPDATRVFV [RPB2]    2.82
4            SEDSAVFKATSSTDEES [FAS1]    3.03
5            YKNLDRGFSKDLKSKAD [RRP6]    3.05

Please report protein stability index for every entry that follows.
1. ERSICALGEFADWDPES [YML031W/NDC1]
2. TAAEKKERLTKEAAAVA [RPL8A]
3. ASNGRNKKGRGHVKPVR [RPS26A]
4. QQAQAQAQAQAQAQAQA [GAL11]
5. VLKTLIEKFEQVPDSLD [RPN6]
6. FGAKPDENKASATSKPA [YJL041W/NSP1]
7. QNAAANAEAKGLDATKL [RPL17A]
8. INSIDTTESSDLKEGLQ [GRR1]

Found:
1: 3.5; 2: 3.25; 3: 3.46; 4: 2.78; 5: 3.16; 6: 2.59; 7: 2.8; 8: 2.54

For every record below, what is its protein stability index?
1. QFEKSRKVSGPRALQPS [RET1]
2. VLPAATKKKSKFMTNST [ARP9]
3. DVPAYNVTSFMPFWKFF [SRB8]
4. LRRLEILVPDLYHLVIM [ECM29]
5. GPEITPEEATTIFSVMV [PRP8]
6. MKTPSLTVYLEPGHAAD [RPO21]
7. RRHRNPDLQFIVISLKN [SMC1]
8. GRLEIFKIHTAKVKKTG [RPT4]

Found:
1: 2.98; 2: 2.74; 3: 1.62; 4: 1.59; 5: 2.09; 6: 3.01; 7: 1.86; 8: 2.13

====

# assayMethodText: protein stability index of a GFP-peptide fusion (yeast GPS) (PSI 1-4); higher = more stable; sorted into four equal gates, so the index is relative within each strain
# experimentalParameters: doa10∆
Given measured protein stability index, output fulfilled if it is greater than or equal to 3 and not fulfilled if not.

Would you please look over these solved cases?
> print(dat)
                    polymersequence  assignedlabel
1          GHIGAYLIVAGVDPTGS [PUP1]  not fulfilled
2  VFGASDKQAEGTPLFTF [YOR098C/NUP1]  not fulfilled
3  NANAGLFNKPPSTNAQN [YOR098C/NUP1]      fulfilled

Lookup: Determine whether measured protein stability index meets or exceeds 3 for SYVEPVLVASAKGLQTV [RPL31A]
Found: not fulfilled

Lookup: Same question for MDNPRKLSKILRTEYGW [SNU114] please.
Found: fulfilled

Lookup: Proceed to GDYDSHDISRYVRAKFL [PRP8]
Found: not fulfilled

====

# assayMethodText: protein stability index of a GFP-peptide fusion (yeast GPS) (PSI 1-4); higher = more stable; sorted into four equal gates, so the index is relative within each strain
# experimentalParameters: san1∆
For each of the sequences below, state its protein stability index.
Give bare numbers.

Give protein stability index for each listed item.
1. IVFVHSRKETSRTATWL [BRR2]
2. MIVYYKDAISFIKEIHK [YCS4]
3. KAELPQWYTLQSQLNVT [MED8]
4. NTLEFIIEQLSIAAERY [YCG1]
5. MKQLKFFKPLDYITEAV [SNU114]
6. KNYPEYFLKVTFLKYFG [IRR1]
7. LAKKWFLQHPDEEYPVK [PRP8]

Found:
1: 2.57; 2: 2.57; 3: 2.8; 4: 2.16; 5: 1.86; 6: 1.22; 7: 3.26

====

# assayMethodText: protein stability index of a GFP-peptide fusion (yeast GPS) (PSI 1-4); higher = more stable; sorted into four equal gates, so the index is relative within each strain
# experimentalParameters: san1∆
Threshold rule: protein stability index greater than or equal to 2 is t; below that, f.

Answered examples (4):
> print(dat)
             polymersequence  assignedlabel
1   IVIDVDYNKKQDRIQDV [MED1]              t
2  SQLNIQLSQDEHSQVEQ [SRP72]              t
3   SLYPPPPPYVKFFTQSN [MED7]              t
4   IVSKEYEKNFEATLESK [ESC2]              t

Lookup: I'd appreciate it if you could say whether KIRPWRTFRLNECVCTP [RPO31] has protein stability index at least equal to 2.
Found: f

Lookup: Try the sequence AEEAAAEEEEESDDDMG [RPP0]
Found: t

Lookup: What do you get for DDSSSDNDSLTDLESLS [SIR4] ?
Found: t

Lookup: Then what about the sequence DSTQLLETILEEFRNLA [SSN2] ?
Found: t

Lookup: Again, but for VTAKLLGFTPGELRSYL [FAS1]
Found: t

====

# assayMethodText: protein stability index of a GFP-peptide fusion (yeast GPS) (PSI 1-4); higher = more stable; sorted into four equal gates, so the index is relative within each strain
# experimentalParameters: ubr1∆
readoutName: protein stability index
Numbers only.

Recorded results for 10 sequences are shown here.
> print(dat)
              polymersequence  number
 1  GAISAVAATNTPIIFIG [SRP54]    2.66
 2   ILDFGPGGASGLGVLTH [FAS1]    2.84
 3   DNEQNLESDFVTGASQF [PRE2]    2.96
 4  SGDSGVYTLACRSCPYE [RPC11]    1.26
 5   DSNMDSISSVVSEDLLD [RPN4]    2.45
 6   FLKEKDTVAELQAQLDY [FAS2]    3.02
 7  KENEESLTPTQSDSAKV [PRP28]    3.11
 8  NAAGNTPDATKIKAILE [RPP2A]    3.19
 9   APSLTVPPIASPQQFLR [PRE2]    1.65
10   DMDPLAVSAASVVSMSN [SIR2]    2.19

Required: protein stability index, one value per sequence below.
1. VLILLHAERDLALAETL [SRP68]
2. MEVLGIEAGRAALYKEV [RPO21]

Found:
3.11
2.76

I'm hoping you can list protein stability index for every sequence here, please.
1. KKVNYKVTSYDITGDIR [ISW2]
2. SNDKVVEWINPSRRERR [ISW2]
3. DGNNANYIYAGYENGML [RPN14]

Found:
[2.67, 3.34, 2.96]

====

# assayMethodText: protein stability index of a GFP-peptide fusion (yeast GPS) (PSI 1-4); higher = more stable; sorted into four equal gates, so the index is relative within each strain
# experimentalParameters: pdr5∆
readoutName: protein stability index
One number for each entry.

// solved cases for protein stability index follow
> print(dat)
                    polymersequence  number
1  ENYDAKIELEKKEKWAR [YIL149C/MLP2]     3.2
2          EAAKLLVDSLATFTSIE [RPN7]     3.1
3          SKQDLIHSLIPVAKWFV [SIN4]    2.99
4          TGLKLYSRITLIIDDPS [RPP1]     2.8
5         MAILLLYNDADVLTLEN [CDC53]    1.93

Look at each sequence and report its protein stability index.
1. TADAEILINTARIHAQN [PRE9]
2. QRLIFAGKQLEDGRTLS [RPS31]

Found:
2.85
2.97

Cited source for all entries: the supplement of paper PMC9732359
